# TARGET: human plasma kallikrein (human, UniProt P03952 20-390; P03952 391-638)
# Sequence (P03952 20-390, chain 1 of 2): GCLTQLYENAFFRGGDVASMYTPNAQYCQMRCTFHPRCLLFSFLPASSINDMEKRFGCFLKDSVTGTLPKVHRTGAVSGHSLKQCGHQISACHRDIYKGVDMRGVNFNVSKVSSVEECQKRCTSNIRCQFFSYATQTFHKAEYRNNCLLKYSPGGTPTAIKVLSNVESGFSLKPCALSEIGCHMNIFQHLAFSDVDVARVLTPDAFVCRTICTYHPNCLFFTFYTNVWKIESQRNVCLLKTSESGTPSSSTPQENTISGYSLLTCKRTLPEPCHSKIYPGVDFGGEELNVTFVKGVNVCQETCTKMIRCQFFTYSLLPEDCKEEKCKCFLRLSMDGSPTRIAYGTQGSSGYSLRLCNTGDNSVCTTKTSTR
# Sequence (P03952 391-638, chain 2 of 2): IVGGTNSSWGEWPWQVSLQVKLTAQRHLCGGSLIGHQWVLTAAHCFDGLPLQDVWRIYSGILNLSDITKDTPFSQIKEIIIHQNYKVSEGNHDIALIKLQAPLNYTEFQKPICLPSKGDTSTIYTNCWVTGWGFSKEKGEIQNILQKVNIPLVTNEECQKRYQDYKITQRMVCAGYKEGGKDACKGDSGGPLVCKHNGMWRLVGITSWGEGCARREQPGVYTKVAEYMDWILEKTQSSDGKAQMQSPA
# ASSAY PROTOCOL: cell-based or functional assay
ASSAY ENDPOINT: % inhibition at 10 nM (%)
// note: answer is a bare numeric in %

Task item: I'd like to know its % inhibition at 10 nM. The binder in question is M198-F09 (Fab, V domains shown, Tested as Fab; printed HC runs into CH1) VH: EVQLLESGGGLVQPGGSLRLSCAASGFTFSVYNMHWVRQAPGKGLEWVSSIYPSGGMTYYADSVKGRFTISRDNSKNTLYLQMNSLRAEDTAVYYCAYRRTGIPRRDAFDIWGQGTMVTVSS VL: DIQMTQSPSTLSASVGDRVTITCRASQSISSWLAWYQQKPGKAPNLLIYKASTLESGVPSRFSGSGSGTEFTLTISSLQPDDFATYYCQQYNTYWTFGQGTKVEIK
Reply: 96.9

Task item: // query % inhibition at 10 nM value for entry M198-F04 (Fab, V domains shown) VH: EVQLLESGGGLVQPGGSLRLSCAASGFTFSIYDMWWVRQAPGKGLEWVSSIRPSGGITKYADSVKGRFTISRDNSKNTLYLQMNSLRAEDTAVYYCAYRRTGIPRRDAFDIWGQGTMVTVSS VL: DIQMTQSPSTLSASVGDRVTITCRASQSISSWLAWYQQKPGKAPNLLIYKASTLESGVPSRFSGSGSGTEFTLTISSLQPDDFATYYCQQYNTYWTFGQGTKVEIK
Reply: 92.9

Task item: // returns reported % inhibition at 10 nM for input M198-E02 (Fab, V domains shown) VH: EVQLLESGGGLVQPGGSLRLSCAASGFTFSIYSMYWVRQAPGKGLEWVSYIRPSGGNTKYADSVKGRFTISRDNSKNTLYLQMNSLRAEDTAVYYCAYRRTGIPRRDAFDIWGQGTMVTVSS VL: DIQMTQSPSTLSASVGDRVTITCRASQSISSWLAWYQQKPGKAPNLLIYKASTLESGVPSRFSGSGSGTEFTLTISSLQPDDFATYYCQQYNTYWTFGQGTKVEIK
Reply: 90.3

Task item: I have this binder here, M197-G11 (Fab, V domains shown) VH: EVQLLESGGGLVQPGGSLRLSCAASGFTFSTYAMVWVRQAPGKGLEWVSSIYPSGGITTYADSVKGRFTISRDNSKNTLYLQMNSLRAEDTAVYYCAYRRTGIPRRDAFDIWGQGTMVTVSS VL: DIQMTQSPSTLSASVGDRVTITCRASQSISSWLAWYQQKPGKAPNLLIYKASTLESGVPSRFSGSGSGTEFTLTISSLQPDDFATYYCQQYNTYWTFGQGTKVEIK , and I need its recorded % inhibition at 10 nM.
Reply: 19.2

Task item: Data request, read-out % inhibition at 10 nM, for M202-E03 (Fab, V domains shown) VH: EVQLLESGGGLVQPGGSLRLSCAASGFTFSHYIMMWVRQAPGKGLEWVSGIYSSGGITVYADSVKGRFTISRDNSKNTLYLQMNSLRAEDTAVYYCAYRRTGIPRRDAFEIWGQGTMVTVSS VL: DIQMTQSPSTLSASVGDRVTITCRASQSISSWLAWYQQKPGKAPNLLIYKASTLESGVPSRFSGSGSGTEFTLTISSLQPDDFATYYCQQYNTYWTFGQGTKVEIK
Reply: 51.4
